# Measurement protocol: refractive index (Na D-line) (dimensionless)
# Assay context: 318.15 K; 101.33 kPa; Liquid; Standard Abbe refractometry
Assay metric: refractive index
// return a plain number; no unit text

Answer with the recorded refractive index for the compound listed here: CCCCCC(=O)OCC [ethyl hexanoate]
1.39597

Answer with the recorded refractive index for the compound listed here: CCOC(=O)Cc1ccccc1 [ethyl phenylacetate]
1.48583

Answer with the recorded refractive index for the compound listed here: CCCCCCCC(=O)OCC [ethyl octanoate]
1.40702

Answer with the recorded refractive index for the compound listed here: CCCC(=O)OCCC(C)C [3-methylbutyl butanoate]
1.39927

Answer with the recorded refractive index for the compound listed here: CC(=O)OCCC(C)C [3-methylbutyl ethanoate]
1.38895

Answer with the recorded refractive index for the compound listed here: CCOC(=O)c1ccccc1 [ethyl benzoate]
1.49391

Now look at this one.
Answer with the recorded refractive index for the compound listed here: CCO [ethanol]
1.35148

* * *

This section presents compounds with their documented surface tension liquid-gas values.
# Measurement protocol: xn = mol fraction of the nth substance listed
# Assay context: 288.15 K, x1 = 0.4
± gives the expanded uncertainty stated by the source.

Here's what some known entries look like.
Answer with the recorded surface tension liquid-gas for the compound listed here: CCOC(=O)Cc1ccccc1 [ethyl phenylacetate] + CCO
28.4 ± 0.6 mN/m

Answer with the recorded surface tension liquid-gas for the compound listed here: CCCC(=O)OCCC(C)C [3-methylbutyl butanoate] + CCO
24.5 ± 0.6 mN/m

Answer with the recorded surface tension liquid-gas for the compound listed here: CC(=O)OCCC(C)C [3-methylbutyl ethanoate] + CCO
24.2 ± 0.4 mN/m

Answer with the recorded surface tension liquid-gas for the compound listed here: CCOC(=O)c1ccccc1 [ethyl benzoate] + CCO
28.7 ± 0.6 mN/m

Continuing:
Answer with the recorded surface tension liquid-gas for the compound listed here: CCCCCC(=O)OCC [ethyl hexanoate] + CCO
25.1 ± 0.6 mN/m

Answer with the recorded surface tension liquid-gas for the compound listed here: CCCCCCCC(=O)OCC [ethyl octanoate] + CCO
25.7 ± 0.6 mN/m

* * *

This section presents compounds with their documented surface tension liquid-gas values.
# Measurement protocol: xn = mol fraction of the nth substance listed
# Assay context: 318.15 K, x1 = 0.05
The reply should contain only the number, in mN/m.

Answer with the recorded surface tension liquid-gas for the compound listed here: CCOC(=O)c1ccccc1 [ethyl benzoate] + CCO
21.3

Answer with the recorded surface tension liquid-gas for the compound listed here: CCCCCCCC(=O)OCC [ethyl octanoate] + CCO
21.1

Answer with the recorded surface tension liquid-gas for the compound listed here: CCCC(=O)OCCC(C)C [3-methylbutyl butanoate] + CCO
20.9

Answer with the recorded surface tension liquid-gas for the compound listed here: CCOC(=O)Cc1ccccc1 [ethyl phenylacetate] + CCO
21.2

Answer with the recorded surface tension liquid-gas for the compound listed here: CCCCCC(=O)OCC [ethyl hexanoate] + CCO
20.9

Answer with the recorded surface tension liquid-gas for the compound listed here: CC(=O)OCCC(C)C [3-methylbutyl ethanoate] + CCO
20.6

* * *

# Measurement protocol: refractive index (Na D-line) (dimensionless); xn = mol fraction of the nth substance listed
# Assay context: 288.15 K; 100.5 kPa; Liquid; Standard Abbe refractometry; x1 = 0.2
This section presents compounds with their documented refractive index values.
// return a plain number; no unit text

Here's what some known entries look like.
Answer with the recorded refractive index for the compound listed here: CCCC(=O)OCCC(C)C [3-methylbutyl butanoate] + CCO
1.38488

Answer with the recorded refractive index for the compound listed here: CCOC(=O)c1ccccc1 [ethyl benzoate] + CCO
1.42035

Answer with the recorded refractive index for the compound listed here: CCCCCC(=O)OCC [ethyl hexanoate] + CCO
1.38253

Answer with the recorded refractive index for the compound listed here: CCOC(=O)Cc1ccccc1 [ethyl phenylacetate] + CCO
1.41969

Answer with the recorded refractive index for the compound listed here: CCCCCCCC(=O)OCC [ethyl octanoate] + CCO
1.38922

Continuing:
Answer with the recorded refractive index for the compound listed here: CC(=O)OCCC(C)C [3-methylbutyl ethanoate] + CCO
1.3787

* * *

# Measurement protocol: xn = mol fraction of the nth substance listed
# Assay context: 308.15 K, x1 = 0.05
Assay metric: surface tension liquid-gas (mN/m)
The reply should contain only the number, in mN/m.

Here's what some known entries look like.
Answer with the recorded surface tension liquid-gas for the molecule listed here: CCCCCCCC(=O)OCC [ethyl octanoate] + CCO
22

Answer with the recorded surface tension liquid-gas for the molecule listed here: CCCCCC(=O)OCC [ethyl hexanoate] + CCO
21.8

Answer with the recorded surface tension liquid-gas for the molecule listed here: CCCC(=O)OCCC(C)C [3-methylbutyl butanoate] + CCO
21.8

Answer with the recorded surface tension liquid-gas for the molecule listed here: CCOC(=O)c1ccccc1 [ethyl benzoate] + CCO
22.2

Continuing:
Answer with the recorded surface tension liquid-gas for the molecule listed here: CCOC(=O)Cc1ccccc1 [ethyl phenylacetate] + CCO
22.2

Answer with the recorded surface tension liquid-gas for the molecule listed here: CC(=O)OCCC(C)C [3-methylbutyl ethanoate] + CCO
21.6

* * *

# Measurement protocol: refractive index (Na D-line) (dimensionless); xn = mol fraction of the nth substance listed
# Assay context: 308.15 K; 100.5 kPa; Liquid; Standard Abbe refractometry; x1 = 0.75
Assay metric: refractive index
// return a plain number; no unit text

Here's what some known entries look like.
Answer with the recorded refractive index for the compound listed here: CCCC(=O)OCCC(C)C [3-methylbutyl butanoate] + CCO
1.39905

Answer with the recorded refractive index for the compound listed here: CCCCCC(=O)OCC [ethyl hexanoate] + CCO
1.39568

Answer with the recorded refractive index for the compound listed here: CC(=O)OCCC(C)C [3-methylbutyl ethanoate] + CCO
1.38907

Continuing:
Answer with the recorded refractive index for the compound listed here: CCOC(=O)Cc1ccccc1 [ethyl phenylacetate] + CCO
1.47613

Answer with the recorded refractive index for the compound listed here: CCOC(=O)c1ccccc1 [ethyl benzoate] + CCO
1.48203

Answer with the recorded refractive index for the compound listed here: CCCCCCCC(=O)OCC [ethyl octanoate] + CCO
1.40619

* * *

# Measurement protocol: refractive index (Na D-line) (dimensionless); xn = mol fraction of the nth substance listed
# Assay context: 308.15 K; 100.5 kPa; Liquid; Standard Abbe refractometry; x1 = 0.4
Assay metric: refractive index
// return a plain number; no unit text

Here's what some known entries look like.
Answer with the recorded refractive index for the compound listed here: CC(=O)OCCC(C)C [3-methylbutyl ethanoate] + CCO
1.37909

Answer with the recorded refractive index for the compound listed here: CCCCCC(=O)OCC [ethyl hexanoate] + CCO
1.3846

Answer with the recorded refractive index for the compound listed here: CCOC(=O)c1ccccc1 [ethyl benzoate] + CCO
1.44571

Continuing:
Answer with the recorded refractive index for the compound listed here: CCCCCCCC(=O)OCC [ethyl octanoate] + CCO
1.39389

Answer with the recorded refractive index for the compound listed here: CCOC(=O)Cc1ccccc1 [ethyl phenylacetate] + CCO
1.44342

Answer with the recorded refractive index for the compound listed here: CCCC(=O)OCCC(C)C [3-methylbutyl butanoate] + CCO
1.38773

* * *

# Measurement protocol: refractive index (Na D-line) (dimensionless); xn = mol fraction of the nth substance listed
# Assay context: 308.15 K; 100.5 kPa; Liquid; Standard Abbe refractometry; x1 = 0.1
This section presents compounds with their documented refractive index values.
// return a plain number; no unit text

Here's what some known entries look like.
Answer with the recorded refractive index for the compound listed here: CC(=O)OCCC(C)C [3-methylbutyl ethanoate] + CCO
1.36349

Answer with the recorded refractive index for the compound listed here: CCCCCC(=O)OCC [ethyl hexanoate] + CCO
1.36602

Answer with the recorded refractive index for the compound listed here: CCOC(=O)Cc1ccccc1 [ethyl phenylacetate] + CCO
1.38745

Answer with the recorded refractive index for the compound listed here: CCOC(=O)c1ccccc1 [ethyl benzoate] + CCO
1.38717

Answer with the recorded refractive index for the compound listed here: CCCC(=O)OCCC(C)C [3-methylbutyl butanoate] + CCO
1.36747

Now look at this one.
Answer with the recorded refractive index for the compound listed here: CCCCCCCC(=O)OCC [ethyl octanoate] + CCO
1.37036

* * *

# Measurement protocol: refractive index (Na D-line) (dimensionless); xn = mol fraction of the nth substance listed
# Assay context: 288.15 K; 100.5 kPa; Liquid; Standard Abbe refractometry; x1 = 0.85
± gives the expanded uncertainty stated by the source.
Assay metric: refractive index

Here's what some known entries look like.
Answer with the recorded refractive index for the compound listed here: CCCCCCCC(=O)OCC [ethyl octanoate] + CCO
1.41709 ± 0.00033

Answer with the recorded refractive index for the compound listed here: CC(=O)OCCC(C)C [3-methylbutyl ethanoate] + CCO
1.40031 ± 0.00034

Answer with the recorded refractive index for the compound listed here: CCCC(=O)OCCC(C)C [3-methylbutyl butanoate] + CCO
1.41003 ± 0.00033

Continuing:
Answer with the recorded refractive index for the compound listed here: CCOC(=O)Cc1ccccc1 [ethyl phenylacetate] + CCO
1.4917 ± 0.00033

Answer with the recorded refractive index for the compound listed here: CCCCCC(=O)OCC [ethyl hexanoate] + CCO
1.40684 ± 0.00032

Answer with the recorded refractive index for the compound listed here: CCOC(=O)c1ccccc1 [ethyl benzoate] + CCO
1.4984 ± 0.00032
